Read-out: Interleukin-8 (IL8), CXCL8 (gene 3576)
experiment: BSK_LPS_IL8: BioMAP Diversity Plus: LPS Assay for Interleukin-8 (IL8) Biomarker Activity (AID 2283078)
condition-summary: primary human HUVEC with PBMC; actives raise or lower the signal
The source made the active and inactive calls. How the source made its calls: active means hit-call score of the fitted dose curve at least 0.9, where 1 is the maximum; inactive means score below 0.9.
Outcome codes: 1 = active, 0 = inactive

[[record]]
smiles_repr = "CCC(C)(C)C(=O)O[C@H]1C[C@@H](C)C=C2C=C[C@H](C)[C@H](CC[C@@H]3C[C@@H](O)CC(=O)O3)[C@H]21"
cat = 0

[[record]]
smiles_repr = "CCCCCCc1ccc(O)cc1O"
cat = 1

[[record]]
smiles_repr = "CC(C)c1cccc(C(C)C)c1N1C(=O)c2ccc(O)cc2C1=O"
cat = 0


====

experiment: ATG_E_Box_CIS: Attagene CIS-FACTORIAL HepG2 Assay for human Enhancer Box (E-box) (AID 2282936)
condition-summary: HepG2 E-box cis-reporter transcription, actives raise or lower the signal
Calls of active or inactive are those of the source. How the source made its calls: active means hit-call score of the fitted dose curve at least 0.9, where 1 is the maximum; inactive means score below 0.9.
readout: outcome

[[record]]
compound = "NC(=O)NO"
result = "inactive"

[[record]]
compound = "O=C1CCC(N2C(=O)c3ccccc3C2=O)C(=O)N1 (stereo not drawn)"
result = "inactive"

[[record]]
compound = "Cn1c(=O)cc(Oc2ccc(F)cc2F)c2cnc(NCC(C)(C)O)nc21"
result = "inactive"


====

Read-out: BCL2L11 (gene 10018)
experiment: LTEA_HepaRG_BCL2L11: Life Technologies and Expression Analysis (LTEA) Assay for Bcl-2 (BCL2L11) gene using HepaRG (AID 2283473)
condition-summary: mRNA level, 48 h; actives raise or lower the signal
Active and inactive are the calls of the source. How the source made its calls: active means hit-call score of the fitted dose curve at least 0.9, where 1 is the maximum; inactive means score below 0.9.
Outcome codes: active, inactive

[[record]]
molecule = "CCOc1cccc(-n2cc(C(=O)N3CCN(c4cc(C(=O)O)c5ccccc5c4)CC3)nc2-c2ccc(C)cc2)c1"
cat = "active"

[[record]]
molecule = "Cn1c(=O)cc(Oc2ccc(F)cc2F)c2cnc(NCC(C)(C)O)nc21"
cat = "inactive"

[[record]]
molecule = "CNCc1ccc(NC(=O)c2c[nH]c3c2C(=O)CCC3)cc1"
cat = "inactive"

[[record]]
molecule = "Cc1c(-c2cccnc2)c2ccccc2n1CCCCC(=O)O"
cat = "inactive"

[[record]]
molecule = "CC(C)CC(C)(O)C#CC(C)(O)CC(C)C (stereo not given)"
cat = "inactive"


====

experiment: ATG_BRE_CIS: Attagene CIS-FACTORIAL HepG2 Assay for human Bone Morphogenetic Protein (BMP) Response Element (BRE) (AID 2282933)
condition-summary: HepG2 BMP response element reporter, Attagene transcription factor profiling; actives raise or lower the signal
Calls of active or inactive are those of the source. Rule for the calls: active = hit-call score of the fitted dose curve at least 0.9, where 1 is the maximum; inactive = score below 0.9.
Outcome codes: Y = active, N = inactive

[[record]]
compound = "Cn1cnc([N+](=O)[O-])c1Sc1ncnc2nc[nH]c12"
cat = "N"

[[record]]
compound = "On1ccccc1=S"
cat = "N"

[[record]]
compound = "CC(C)CCCCCCOC(=O)c1ccc(C(=O)OCCCCCCC(C)C)c(C(=O)OCCCCCCC(C)C)c1"
cat = "N"

[[record]]
compound = "CCn1nc(Cc2ccccc2)cc1C1CCN(C[C@H]2C[C@H](N(C)[C@@H](C(=O)O)C(C)C)C[C@@H]2c2cccc(F)c2)CC1"
cat = "N"

[[record]]
compound = "CN(C)c1ccc(Cc2ccc(N(C)C)cc2)cc1"
cat = "Y"

[[record]]
compound = "CC(C)=CCCC(C)CCO (stereo not drawn)"
cat = "N"

[[record]]
compound = "C=CCCCCCCCCC(=O)O"
cat = "N"

[[record]]
compound = "O=C(CCCCCCCCc1cccnc1)N1CCC(C=C(c2ccccc2)c2ccccc2)CC1"
cat = "Y"

[[record]]
compound = "CCOCCO"
cat = "N"

[[record]]
compound = "Cc1[nH]cnc1C[C@H]1CCc2c(C)c3ccccc3n2C1=O"
cat = "Y"

[[record]]
compound = "Nc1nc2ncc(CNc3ccc(C(=O)N[C@@H](CCC(=O)O)C(=O)O)cc3)nc2c(=O)[nH]1"
cat = "N"

[[record]]
compound = "CC(C)CCCCCCCOC(=O)CCCCC(=O)OCCCCCCCC(C)C"
cat = "N"

[[record]]
compound = "CC(C)CCO"
cat = "N"

